Measured Δ Tm, listed per entry for reference.
target: PscD (PscD-SD, Cache sensor domain of chemoreceptor PscD) (Pseudomonas syringae, UniProt A0ABY1U976); construct: gene CFBP3846_03581; sensor domain, Gln31-Trp188, N-terminal His6 tag; conditions: Biolog plate compound, exact concentration unknown; binder
Sequence (A0ABY1U976 31-188): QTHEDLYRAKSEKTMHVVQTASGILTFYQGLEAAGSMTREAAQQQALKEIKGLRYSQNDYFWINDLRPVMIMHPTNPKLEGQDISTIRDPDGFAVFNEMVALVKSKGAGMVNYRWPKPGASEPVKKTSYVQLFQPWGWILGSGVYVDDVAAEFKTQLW
Unit °C implied. Number only.

Answered cases to consult:
{"molecule": "O=C(CO)[C@@H](O)[C@H](O)[C@H](O)CO", "Δ Tm, °C": 0.17}
{"molecule": "O=C(O)[C@@H](O)[C@H](O)[C@H](O)[C@@H](O)C(=O)O", "Δ Tm, °C": 0.07}
{"molecule": "Cc1cn([C@H]2C[C@H](O)[C@@H](CO)O2)c(=O)[nH]c1=O", "Δ Tm, °C": 0.15}
{"molecule": "Nc1ncnc2c1ncn2[C@H]1C[C@H](O)[C@@H](CO)O1", "Δ Tm, °C": 0.17}
{"molecule": "NC(=O)CC[C@H](N)C(=O)O", "Δ Tm, °C": 0.00}
{"molecule": "OC[C@H]1O[C@H](O[C@H]2[C@H](O)[C@@H](O)[C@H](O)O[C@@H]2CO)[C@H](O)[C@@H](O)[C@@H]1O", "Δ Tm, °C": 0.20}
{"molecule": "O=C(O)Cc1ccc(O)cc1 [p-Hydroxy Phenyl Acetic Acid]", "Δ Tm, °C": 0.15}
{"molecule": "N[C@@H](CCC(=O)O)C(=O)O", "Δ Tm, °C": 0.15}

Task: Fill in: Δ Tm of OC[C@@H](O)[C@@H](O)[C@H](O)[C@H](O)CO is ___
Output: 0.17

Task: Here is the next molecule: C[C@H](N)C(=O)O
Output: 0.10

Task: Here is the next molecule: OC[C@H]1O[C@@](CO)(O[C@H]2O[C@H](CO)[C@@H](O)[C@H](O)[C@H]2O)[C@@H](O)[C@@H]1O
Output: 0.17
